Quick reference: Growth Inhibition of the listed items.
tested on: Lactobacillus casei ATCC 4646; assay: Growth inhibition by aldehydes in product vehicles, pour-plate technique; assay type: cell-based; conditions: in toothpaste (aqueous extract), 1 to 5 percent aldehyde, 2 h incubation
Reply numerically in Per cent, unit not repeated.

Inquiry: Report Growth Inhibition from Lactobacillus casei ATCC 4646 testing of O=CCO [Glycolaldehyde]
Reply text: 0

Inquiry: Report value only: Growth Inhibition, Lactobacillus casei ATCC 4646, CCCCCCCCCC=O [Decanaldehyde]
Reply text: 0

* * *

System: Lactobacillus casei ATCC 4646
Test: Growth inhibition by aldehydes in product vehicles, pour-plate technique
Assay type: cell-based
Conditions: in dextrose syrup, 1 to 5 percent aldehyde, 2 h incubation
Method: Other in vitro evaluations utilized a broth tube analysis of representative anticaries aldehydes incorporated in the vehicles of this invention against cultures of acid producing microorganisms normally present in the mouth. Standard laboratory procedures were utilized throughout to evaluate the acid production inhibition and growth inhibition over the incubation time of up to 24 hours. (b)Measured by pour-plate technique. […]
Below is a list of entries, each paired with its recorded Growth Inhibition value.
Record the value in Per Cent, omitting the unit from your answer.

Inquiry: Given `CCCCCCCCCC=O` , respond with its Growth Inhibition.
Reply text: 99.7

Inquiry: Identify Growth Inhibition associated with the molecule `CC(=O)C=O`
Reply text: 99.4

* * *

tested on: Mixed human oral microorganisms; assay: Growth inhibition by aldehydes in product vehicles, pour-plate technique; assay type: cell-based; conditions: in sucrose syrup, 1 to 5 percent aldehyde, 2 h incubation
Form field: Growth Inhibition (one value per entry).
Output spec: scalar in Per cent, unitless text.

O=C[C@H](O)CO (racemic): 96
O=CCCCC=O: 90

Inquiry: State its Growth Inhibition for this compound: `O=CCO`
Reply text: 98

* * *

system: Lactobacillus casei ATCC 4646; assay: Acid production inhibition by aldehydes in product vehicles, broth-tube technique; type: cell-based; details: in tooth powder (aqueous extract), 1 to 5 percent aldehyde, 24 h incubation
PARAMETER MEASURED: Acid Production Inhibition (Per cent)
Expressed in Per cent, but write only the number.

Solved entries:
O=CCO: 73
O=CCCCC=O: 21
O=C[C@H](O)CO (racemic): 84
CC(=O)C=O: 71

Inquiry: Name the value of Acid Production Inhibition reported for `CCCCCCCCCCCC=O` when tested on Lactobacillus casei ATCC 4646.
Reply text: 93

* * *

# Acid Production Inhibition listing for each entry below
system: Streptococcus spp. KI-R; experiment: Acid production inhibition by aldehydes in product vehicles, broth-tube technique; type: cell-based; conditions: in sucrose syrup, 1 to 5 percent aldehyde, 24 h incubation
Expressed in Per cent, but write only the number.

# count of solved cases: 4
CC(=O)C=O [Pyruvaldehyde]: 86.4
O=CCO [Glycolaldehyde]: 84
CCCCCCCCCC=O [Decanaldehyde]: 100
O=CCCCC=O [Glutaraldehyde]: 0

With those in mind, consider the next compound.
Inquiry: Give Acid Production Inhibition for O=C[C@H](O)CO (racemic) [d,1-Glyceraldehyde]
Reply text: 86

* * *

system: Mixed human oral microorganisms; assay: Growth inhibition by aldehydes in product vehicles, pour-plate technique; assay type: cell-based; conditions: in sucrose syrup, 1 to 5 percent aldehyde, 24 h incubation
PARAMETER MEASURED: Growth Inhibition

Worked cases, answers included:
O=C[C@H](O)CO (racemic): 0 Per cent
CCCCCCCCCC=O: N.S.
O=CCO: > 99 Per cent
O=CCCCC=O: N.S.

Attention now shifts to the item below.
Inquiry: Tell me measured Growth Inhibition for `CC(=O)C=O` please.
Reply text: N.S.
